Molecular target: T1, CAPRIN-1 protein expressed on the membrane surface of human cancer cells (human, UniProt Q14444 2-709)
T1 sequence (looked up): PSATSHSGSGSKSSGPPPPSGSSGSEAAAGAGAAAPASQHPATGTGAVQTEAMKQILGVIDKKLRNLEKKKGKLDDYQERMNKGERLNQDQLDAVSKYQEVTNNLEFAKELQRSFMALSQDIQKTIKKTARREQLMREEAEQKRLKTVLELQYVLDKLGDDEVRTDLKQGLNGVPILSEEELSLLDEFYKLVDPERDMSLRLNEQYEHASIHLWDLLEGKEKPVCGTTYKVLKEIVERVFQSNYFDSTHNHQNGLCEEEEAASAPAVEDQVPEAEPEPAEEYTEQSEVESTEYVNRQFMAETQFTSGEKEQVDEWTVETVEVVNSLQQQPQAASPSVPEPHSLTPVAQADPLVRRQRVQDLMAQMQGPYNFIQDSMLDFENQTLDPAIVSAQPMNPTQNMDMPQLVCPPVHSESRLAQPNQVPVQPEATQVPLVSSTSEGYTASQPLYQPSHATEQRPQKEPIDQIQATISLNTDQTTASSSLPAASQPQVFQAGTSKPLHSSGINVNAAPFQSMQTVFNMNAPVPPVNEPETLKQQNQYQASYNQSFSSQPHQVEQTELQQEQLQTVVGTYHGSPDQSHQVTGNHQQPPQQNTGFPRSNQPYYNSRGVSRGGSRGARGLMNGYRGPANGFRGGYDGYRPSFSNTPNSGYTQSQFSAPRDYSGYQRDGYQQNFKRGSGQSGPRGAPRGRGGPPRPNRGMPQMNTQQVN
Experiment: cell-based or functional assay
measure name: ADCC cytotoxic activity (51Cr release) on HT-1080

1. humanized antibody #2 (antibody, V domains shown) VH: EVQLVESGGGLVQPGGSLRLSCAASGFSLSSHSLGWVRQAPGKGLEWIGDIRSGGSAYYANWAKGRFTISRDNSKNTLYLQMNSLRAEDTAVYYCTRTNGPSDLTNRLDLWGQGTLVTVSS VL: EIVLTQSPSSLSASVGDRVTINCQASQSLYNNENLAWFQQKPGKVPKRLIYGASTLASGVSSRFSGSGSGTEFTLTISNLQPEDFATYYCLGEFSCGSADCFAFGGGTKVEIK
≥ 25%

Query: Need ADCC cytotoxic activity (51Cr release) on HT-1080, item humanized antibody #5 (antibody, V domains shown) VH: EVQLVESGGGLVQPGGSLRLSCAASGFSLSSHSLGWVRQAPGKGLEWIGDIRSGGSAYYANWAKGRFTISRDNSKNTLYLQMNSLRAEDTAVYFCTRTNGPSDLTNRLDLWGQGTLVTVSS VL: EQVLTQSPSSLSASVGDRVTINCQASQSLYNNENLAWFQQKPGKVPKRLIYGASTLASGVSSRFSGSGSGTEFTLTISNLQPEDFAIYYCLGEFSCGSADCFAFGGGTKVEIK
Response: ≥ 25%
